- assay system: OR51E1 olfactory receptor (Homo sapiens, UniProt Q8TCB6, K299R)
- Construct: expressed in transfected cells
- Sequence (Q8TCB6 2-318 K299R limits assumed): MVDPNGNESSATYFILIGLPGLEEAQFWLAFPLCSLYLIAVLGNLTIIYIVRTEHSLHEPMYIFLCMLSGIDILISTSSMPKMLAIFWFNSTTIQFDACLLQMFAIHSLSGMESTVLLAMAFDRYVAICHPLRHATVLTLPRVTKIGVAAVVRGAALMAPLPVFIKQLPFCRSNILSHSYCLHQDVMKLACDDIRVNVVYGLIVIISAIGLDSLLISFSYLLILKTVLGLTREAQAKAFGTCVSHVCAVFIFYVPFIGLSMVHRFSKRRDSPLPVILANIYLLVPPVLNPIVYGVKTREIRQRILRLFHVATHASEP
- assay: Butyric acid olfactory receptor antagonist cell-based inhibitory dose-response assay
- measurement parameters: Table 4; butyric acid at EC94
endpoint label: Inhibition (%)
Entry rule: numbers only, all in %.

Solved cases (2 shown):
compound | assay system | units text | Inhibition (%)
CC1=CCC2(CCCCC2O)C(C(C)C)C1 (centres unmarked) | OR51E1 olfactory receptor (Homo sapiens, UniProt Q8TCB6, K299R) | % | 144
COC1C(C)(C)CCC12CCCC2 (centres unmarked) [4-methoxy-3,3-dimethylspiro[4.4]nonane] | OR51E1 olfactory receptor (Homo sapiens, UniProt Q8TCB6, K299R) | % | 105

Query the reported Inhibition (%) for OR51E1 olfactory receptor (Homo sapiens, UniProt Q8TCB6, K299R); item: "CC1=C(C)CC2(CCC(C)(C)C2=O)C1"
10

Query the reported Inhibition (%) for OR51E1 olfactory receptor (Homo sapiens, UniProt Q8TCB6, K299R); item: CC1CC2(CCCC(C)(C)C2O)CC1C (centres unmarked) [2,3,9,9-tetramethylspiro[4.5]decan-10-ol]
12

Query the reported Inhibition (%) for OR51E1 olfactory receptor (Homo sapiens, UniProt Q8TCB6, K299R); item: CC1C=CCC(C)C1C(O)C(C)(C)C (centres unmarked)
31

Query the reported Inhibition (%) for OR51E1 olfactory receptor (Homo sapiens, UniProt Q8TCB6, K299R); item: CC1=C(C)CC2(CCCC(C)(C)C2OC=O)C1 (centres unmarked)
69
